Overview of recorded IC50 for various compounds
- System: MYB
- procedure_text: Splicing RT-qPCR assay, MYB mRNA canonical junction (CJ) and alternative junction (AJ)
- Assay type: cell-based, human
- condition_details: Homo sapiens, 24 h, decrease in CJ mRNA; A673 or K562 cells, 24 hours treatment, RT-qPCR; read-out: MYB CJ IC50
assay_endpoint: IC50

>>> df
                                    compound      result_value
 0  CN(c1ccc(-c2ccc(-c3cn[nH]c3)c3cn[nH]c23)nn1)[C@@H]1C[C@H]2CCC[C@@H](C1)N2          < 100 nM
 1  CCN(c1ccc(-c2ccc(-c3cn[nH]c3)c3ncsc23)nn1)C1CC(C)(C)NC(C)(C)C1    100 to 1000 nM
 2  CN(c1ccc(-c2cc(F)c(-c3cn[nH]c3)c3cn[nH]c23)nn1)[C@@H]1C[C@H]2CC[C@@H](C1)N2    100 to 1000 nM
 3  c1nc2c(-c3cn[nH]c3)ccc(-c3ccc(N4CCNCC4)nn3)c2s1  1000 to 10000 nM
 4  CN(c1ccc(-c2ccc(-c3ccn(C)c(=O)c3)c3ncsc23)nn1)C1CC(C)(C)NC(C)(C)C1  1000 to 10000 nM
 5  CCN(c1ccc(-c2ccc(-c3cn[nH]c3)c3cn[nH]c23)nn1)C1CCNCC1        > 10000 nM
 6  CN(c1ncc(-c2ccc(-c3cn[nH]c3)c3ncsc23)nn1)[C@H]1C[C@]2(C)CC[C@](C)(C1)N2    100 to 1000 nM
 7  Fc1ccn(-c2ccc(-c3ccc(O[C@@H]4C[C@H]5CC[C@@H](C4)N5)nn3)c3scnc23)n1    100 to 1000 nM
 8  Cn1cc(-c2ccc(-c3ccc(O[C@@H]4C[C@H]5CC[C@@H](C4)N5)nn3)c3[nH]ncc23)nn1    100 to 1000 nM
 9  C[C@H]1C[C@@H](N(C)c2ccc(-c3ccc(-n4cccn4)c4cc[nH]c34)nn2)CCN1  1000 to 10000 nM
10  Cn1ncc(-c2ccc(-c3ccc(O[C@@H]4C[C@H]5CC[C@@H](C4)N5)nn3)c3[nH]ncc23)n1    100 to 1000 nM
11  CN(c1ccc(-c2ccc(-c3cn[nH]c3)c3cc[nH]c23)nn1)[C@@H]1C[C@H]2CC[C@@H](C1)N2  1000 to 10000 nM
12  c1nc2c(-c3cn[nH]c3)ccc(-c3ccc(S[C@@H]4C[C@H]5CC[C@@H](C4)N5)nn3)c2s1        > 10000 nM
13  CN(c1ccc(-c2ccc(-n3cccn3)c3cn[nH]c23)nn1)[C@@H]1C[C@H]2CC[C@@H](C1)N2          < 100 nM
14  CC1(C)CC(Oc2ccc(-c3ccc(-c4cn[nH]c4)c4cn[nH]c34)nn2)CCN1 (stereo not drawn)  1000 to 10000 nM
